- assay.protocol: Tissue distribution (pharmacokinetic study)
- Type: in vivo, mouse
- condition.parameters: male, mouse, intestine; ICR mice, single oral 20 mg/kg, 4 h; read-out: Concentration in intestine
property: tissue level at time at 4 h (ng/g)
Answers are plain numbers, in ng/g.

Look at this molecule and give its reported tissue level at time at 4 h. `CC(C)C[C@@H]1NC(=O)[C@@H]2CN(CCO2)c2cccc3c2c(cn3[Si](C(C)C)(C(C)C)C(C)C)C[C@H](NS(=O)(=O)C(F)(F)F)C(=O)OCCCCNC(=O)[C@H](CC(C)C)NC(=O)[C@@H]2CN(CCO2)c2cccc3c2c(cn3[Si](C(C)C)(C(C)C)C(C)C)C[C@H](NS(=O)(=O)C(F)(F)F)C(=O)OCCCCNC1=O`
435

----------
- assay.protocol: Tissue distribution (pharmacokinetic study)
- Format: in vivo, mouse
- condition.parameters: male, mouse, intestine; ICR mice, single oral 20 mg/kg, 1 h; read-out: Concentration in intestine
property: tissue level at time at 1 h (ng/g)
Give bare numbers, in ng/g.

Look at this molecule and give its reported tissue level at time at 1 h. CC(C)C[C@@H]1NC(=O)[C@@H]2CN(CCO2)c2cccc3c2c(cn3[Si](C(C)C)(C(C)C)C(C)C)C[C@H](NS(=O)(=O)C(F)(F)F)C(=O)OCCCCNC(=O)[C@H](CC(C)C)NC(=O)[C@@H]2CN(CCO2)c2cccc3c2c(cn3[Si](C(C)C)(C(C)C)C(C)C)C[C@H](NS(=O)(=O)C(F)(F)F)C(=O)OCCCCNC1=O [DC646]
6350

----------
- assay.protocol: Subacute toxicity test
- Type: in vivo, mouse
- condition.parameters: mouse, in vivo; C57BL/6 male mice, oral, 7 days; highest dosage tested; read-out: Highest dosage with good tolerance
property: MTD at 168 h (mg/kg)
Numbers only, in mg/kg.

Look at this compound and give its reported MTD at 168 h. `CC(C)C[C@@H]1NC(=O)[C@@H]2CN(CCO2)c2cccc3c2c(cn3[Si](C(C)C)(C(C)C)C(C)C)C[C@H](NS(=O)(=O)C(F)(F)F)C(=O)OCCCCNC(=O)[C@H](CC(C)C)NC(=O)[C@@H]2CN(CCO2)c2cccc3c2c(cn3[Si](C(C)C)(C(C)C)C(C)C)C[C@H](NS(=O)(=O)C(F)(F)F)C(=O)OCCCCNC1=O`
200
